Target: FolT1 (Lactobacillus delbrueckii, UniProt Q1G930)
Construct: solitary S-component, N-terminal His8-tag, expressed in Lactococcus lactis NZ9000, purified in n-nonyl-beta-D-glucopyranoside
Sequence (Q1G930 entry or part of it): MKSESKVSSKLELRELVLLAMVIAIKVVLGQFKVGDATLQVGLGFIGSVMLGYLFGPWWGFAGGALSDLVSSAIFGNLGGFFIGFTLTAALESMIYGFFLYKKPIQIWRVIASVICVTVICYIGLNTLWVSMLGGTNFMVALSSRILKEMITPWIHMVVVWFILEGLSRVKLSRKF
Test: intrinsic fluorescence titration; crystal structure […] Å
Settings: read-out: dissociation constant
property.label: Kd (nM)
Answers are plain numbers, in nM.

# input Using the record for Nc1nc2ncc(CNc3ccc(C(=O)N[C@@H](CCC(=O)O)C(=O)O)cc3)nc2c(=O)[nH]1 [folate] , report its Kd.
# output 1

----------
Biological target: FolT2 (Lactobacillus delbrueckii)
Construct: solitary S-component, N-terminal His8-tag, expressed in Lactococcus lactis NZ9000, purified in n-nonyl-beta-D-glucopyranoside
Sequence (Q1G929 entry or part of it): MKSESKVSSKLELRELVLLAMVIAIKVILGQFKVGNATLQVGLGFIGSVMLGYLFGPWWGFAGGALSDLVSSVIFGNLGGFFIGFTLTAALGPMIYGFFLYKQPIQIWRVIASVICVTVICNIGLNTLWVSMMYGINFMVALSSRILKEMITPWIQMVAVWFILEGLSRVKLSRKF
Test: intrinsic fluorescence titration
Conditions: read-out: dissociation constant
property.label: pKd
Numbers only, as −log10 of the molar value.

# input Using the record for Nc1nc2ncc(CNc3ccc(C(=O)N[C@@H](CCC(=O)O)C(=O)O)cc3)nc2c(=O)[nH]1 [folate] , report its pKd.
# output 8.51

The values you see were collected from paper PMC4820897.
